Source of measurements: patent US20260365670A1

// values below are reported pIC50
Target: EGFR Exon19Del (Homo sapiens, UniProt P00533, DEL746-750)
Construct: purchased Carna Bio
Sequence (P00533 with tags, fused parts or gaps DEL746-750 limits assumed): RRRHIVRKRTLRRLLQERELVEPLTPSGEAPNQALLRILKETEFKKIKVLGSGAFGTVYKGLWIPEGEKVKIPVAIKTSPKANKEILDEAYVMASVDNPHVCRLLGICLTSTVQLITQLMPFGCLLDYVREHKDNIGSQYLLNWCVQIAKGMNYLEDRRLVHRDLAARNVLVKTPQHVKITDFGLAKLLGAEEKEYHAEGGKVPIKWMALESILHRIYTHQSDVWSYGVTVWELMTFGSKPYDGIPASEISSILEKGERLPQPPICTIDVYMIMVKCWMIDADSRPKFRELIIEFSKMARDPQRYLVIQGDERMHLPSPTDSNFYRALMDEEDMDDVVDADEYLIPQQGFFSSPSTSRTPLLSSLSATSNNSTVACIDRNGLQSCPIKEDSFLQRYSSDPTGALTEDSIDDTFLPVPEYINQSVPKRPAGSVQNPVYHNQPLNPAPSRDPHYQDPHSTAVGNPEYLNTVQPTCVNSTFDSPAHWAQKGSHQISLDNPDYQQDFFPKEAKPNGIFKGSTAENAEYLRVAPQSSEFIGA
Test: Inhibition of EGFR Exon19Del biochemical enzymatic activity (HTRF)
Conditions: EGFR Exon19Del, 1 mM ATP, 1 h at room temperature, read-out: IC50 @Del19
pIC50: −log10 of the molar value.

[
  {
    "Compound": "Cc1cc2cc(n1)-c1cnn(C)c1OCCCCCn1c(nc3ccn(C)c(=O)c31)NC2=O [Example B20]",
    "Result": "< 5.30"
  }
]

[ask] # lookup: pIC50 of Cc1cc2cc(n1)-c1cnn(C)c1OCCN1CC3CCC(C3)(C1)n1c(nc3ccc(N4CCN(C5CC5)CC4)cc31)NC2=O (single isomer, unassigned) [Example B55A]
[reply] < 5.30

[ask] # lookup: pIC50 of Cc1cc2cc(n1)-c1cnn(C)c1OCCN1CC3CCC(C3)(C1)n1c(nc3ccc(N4CCC5(CN(C)C5)C4)cc31)NC2=O (single isomer, unassigned) [Example B50A]
[reply] < 5.30

====

Test system: Ba/F3 cells expressing EGFR mutations
Test: Cell proliferation assay, Ba/F3 cells expressing EGFR mutations (CellTiter-Glo, 72 hours)
Assay type: cell-based
Conditions: BaF3 cells, EGFR L858R-T790M, CellTiter-Glo, read-out: L858R-T790M/BaF3 GI50
Param label: returns yes (1) when GI50 < 200 nM, returns no (0) otherwise, including exact equality.

[ask] Is GI50 strictly under 200 nM for the entry CN1CCCC12CN(c1ccc3nc4n(c3c1)C13CCC(CN(CCOc5c(cnn5C)-c5cc(cn(C)c5=O)C(=O)N4)C1)C3)C2 (single isomer, unassigned) [Example A76A] ?
[reply] no (0)

[ask] Is GI50 strictly under 200 nM for the entry CN1CCC2(CCN(c3ccc4nc5n(c4c3)C34CCC(CN(CCOc6c(cnn6C)-c6cc(cn(C)c6=O)C(=O)N5)C3)C4)CC2)C1 (single isomer, unassigned) [Example A82A] ?
[reply] yes (1)

[ask] Is GI50 strictly under 200 nM for the entry CN(C)[C@@H]1CCN(c2ccc3nc4n(c3c2)C23CCC(CN(CCOc5c(cnn5C)-c5cc(cn(C)c5=O)C(=O)N4)C2)C3)C1 (single isomer, unassigned) [Example A66D] ?
[reply] yes (1)

[ask] Is GI50 strictly under 200 nM for the entry CN1CCN(c2ccc3nc4n(c3c2)C23CCC(CN(CCOc5c(cnn5C)-c5cc(cn(C)c5=O)C(=O)N4)C2)C3)CC1 (single isomer, unassigned) [Example A63B] ?
[reply] yes (1)

[ask] Is GI50 strictly under 200 nM for the entry CN1CC2CC1CN2c1ccc2nc3n(c2c1)C12CCC(CN(CCOc4c(cnn4C)-c4cc(cn(C)c4=O)C(=O)N3)C1)C2 (single isomer, unassigned) [Example A105A] ?
[reply] no (0)

[ask] Is GI50 strictly under 200 nM for the entry CN1CCN(c2ccc3c(c2)nc2n3C34CCC(CN(CCOc5c(cnn5C)-c5cc(cn(C)c5=O)C(=O)N2)C3)C4)CC1 (stereo not shown) [Example A60] ?
[reply] no (0)

[ask] Is GI50 strictly under 200 nM for the entry Cn1ncc2c1OCCN1CC3CCC(C3)(C1)n1c(nc3ccc(N4CCN(C5COC5)CC4)cc31)NC(=O)c1cc-2c(=O)n(C)c1 (single isomer, unassigned) [Example A71B] ?
[reply] yes (1)

[ask] Is GI50 strictly under 200 nM for the entry CN1CCC2(C1)CN(c1ccc3nc4n(c3c1)C13CCC(CN(CCOc5c(cnn5C)-c5cc(cn(C)c5=O)C(=O)N4)C1)C3)C2 (single isomer, unassigned) [Example A78B] ?
[reply] yes (1)

[ask] Is GI50 strictly under 200 nM for the entry CN(C)C1CN(c2ccc3nc4n(c3c2)C23CCC(CN(CCOc5c(cnn5C)-c5cc(cn(C)c5=O)C(=O)N4)C2)C3)CC1F (single isomer, unassigned) [Example A84B] ?
[reply] no (0)

[ask] Is GI50 strictly under 200 nM for the entry Cn1ncc2c1OCCN1CC3CCC(C3)(C1)n1c(nc3ccc(N4CCC(N5CC(F)C5)C4)cc31)NC(=O)c1cc-2c(=O)n(C)c1 (single isomer, unassigned) [Example A94B2] ?
[reply] yes (1)

====

Tested on: Ba/F3 cells expressing EGFR mutations
Test: Cell proliferation assay, Ba/F3 cells expressing EGFR mutations (CellTiter-Glo, 72 hours)
Assay type: cell-based
Settings: Mus musculus, BaF3, 72 h, EGFR DEL19 - T790M, read-out: GI50 DEL19 - T790M
// values below are reported log10 of GI50
Each number you see is log10 of GI50, and the unit inside the log is nM.

Worked set:
[
  {
    "Compound": "Cc1cc2cc(n1)-c1cnn(C)c1OCCN1CC3CCC(C3)(C1)n1c(nc3ccccc31)NC2=O (single isomer, unassigned) [Example B8A]",
    "Number": 2.47
  },
  {
    "Compound": "Cc1cc2cc(n1)-c1cnn(C)c1OCCN1CC3CCC(CC3)(C1)n1c(nc3ccc(N4CC5CN(C)CC5C4)cc31)NC2=O (stereo not drawn)",
    "Number": 0.60
  },
  {
    "Compound": "Cc1cc2cc(n1)-c1cnn(C)c1OCCN1CC3CCC(CC3)(C1)n1c(nc3ccc(N4CC[C@@H](N(C)C)C4)cc31)NC2=O",
    "Number": 1.04
  },
  {
    "Compound": "Cn1ncc2c1OCCN1CC3CCC(C3)(C1)n1c(nc3cc(F)ccc31)NC(=O)c1cc-2c(=O)n(C)c1 (stereo not drawn) [Example A117B]",
    "Number": 1.08
  },
  {
    "Compound": "CN(C)C1CCN(c2ccc3nc4n(c3c2)C23CCC(CC2)CN(CCOc2c(cnn2C)-c2cc(cn(C)c2=O)C(=O)N4)C3)CC1",
    "Number": 0.86
  },
  {
    "Compound": "CN(C)[C@H]1CCN(c2ccc3nc4n(c3c2)C23CCC(CC2)CN(CCOc2c(cnn2C)-c2cc(cn(C)c2=O)C(=O)N4)C3)C1",
    "Number": 1.60
  }
]

[ask] # lookup: log10 of GI50 of `CN1CCN(c2ccc3nc4n(c3c2)C(C)(C)CCCCOc2c(cnn2C)-c2cc(cn(C)c2=O)C(=O)N4)CC1`
[reply] 2.02

[ask] # lookup: log10 of GI50 of `Cn1ncc2c1OCCN1CC3CCC(CC3)(C1)n1c(nc3cc(F)c(N4CCOCC4)cc31)NC(=O)c1cc-2c(=O)n(C)c1`
[reply] 1.80

[ask] # lookup: log10 of GI50 of `Cc1cc2cc(n1)-c1cnn(C)c1OCCN1CC3CCC(CC3)(C1)n1c(nc3ccc(N4CCC(N(C)C)CC4)cc31)NC2=O`
[reply] 0.30

[ask] # lookup: log10 of GI50 of `Cc1cc2cc(n1)-c1cnn(C)c1OCCN1CC3CCC(CC3)(C1)n1c(nc3ccc(N4CCN(C)CC4)cc31)NC2=O`
[reply] 0.40

[ask] # lookup: log10 of GI50 of `Cc1cc2cc(n1)-c1cnn(C)c1OCCN(CC(F)F)CCn1c(nc3ccccc31)NC2=O`
[reply] 1.61

[ask] # lookup: log10 of GI50 of `Cc1cc2cc(n1)-c1cnn(C)c1OCCN1CC3CCC(CC3)(C1)n1c(nc3ccc(N4CCN(C(C)C)CC4)cc31)NC2=O`
[reply] 0.85

[ask] # lookup: log10 of GI50 of `Cc1cc2cc(n1)-c1cnn(C)c1OCCC[C@@H](C)Cn1c(nc3ccc4c(c31)CCN(C1COC1)C4)NC2=O`
[reply] 0.46

[ask] # lookup: log10 of GI50 of `Cc1cc2cc(n1)-c1cnn(C)c1OCCC[C@@H](C)Cn1c(nc3ccc4c(c31)CCN(CCN(C)C)C4)NC2=O`
[reply] -0.10

====

Target: EGFR[T790M/C797S/d746-750] (Homo sapiens, UniProt P00533, C797S/DEL746-750/T790M)
Construct: purchased Carna Bio
Sequence (P00533 with tags, fused parts or gaps DEL746-750/T790M/C797S limits assumed): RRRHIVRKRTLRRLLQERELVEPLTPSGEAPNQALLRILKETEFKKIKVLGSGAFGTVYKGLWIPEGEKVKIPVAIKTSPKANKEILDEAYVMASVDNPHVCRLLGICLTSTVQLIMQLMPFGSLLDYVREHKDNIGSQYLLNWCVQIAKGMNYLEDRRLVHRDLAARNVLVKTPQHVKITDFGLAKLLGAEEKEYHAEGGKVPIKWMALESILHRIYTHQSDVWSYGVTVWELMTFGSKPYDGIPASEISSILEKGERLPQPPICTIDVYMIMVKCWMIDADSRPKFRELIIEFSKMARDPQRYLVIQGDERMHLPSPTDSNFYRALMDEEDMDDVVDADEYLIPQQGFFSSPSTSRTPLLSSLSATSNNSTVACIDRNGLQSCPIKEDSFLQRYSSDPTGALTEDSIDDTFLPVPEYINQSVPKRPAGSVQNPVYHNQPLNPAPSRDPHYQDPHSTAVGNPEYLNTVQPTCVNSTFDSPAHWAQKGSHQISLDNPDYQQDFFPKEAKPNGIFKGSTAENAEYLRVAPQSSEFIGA
Assay: Inhibition of EGFR[T790M/C797S/d746-750] biochemical enzymatic activity (HTRF)
Conditions: EGFR[T790M/C797S/d746-750], 1 mM ATP, 1 h at room temperature, read-out: IC50 @T790M - C797S - Del19
pIC50: −log10 of the molar value.
Reported Endpoint: pIC50

Worked set:
[
  {
    "Compound": "Cc1cc2cc(n1)-c1cnn(C)c1OCCN1CC3CCC(C3)(C1)n1c(nc3ccc(N4CCC(N5CCOCC5)C4)cc31)NC2=O (single isomer, unassigned) [Example B44A2]",
    "pIC50": "< 5.30"
  },
  {
    "Compound": "COCCN(C)c1ccc2nc3n(c2c1)C12CCC(CN(CCOc4c(cnn4C)-c4cc(cc(C)n4)C(=O)N3)C1)C2 (single isomer, unassigned) [Example B46A]",
    "pIC50": "< 5.30"
  }
]

Now look at this one.
[ask] # lookup: pIC50 of Cc1cc2cc(n1)-c1cnn(C)c1OCCN1CC3CCC(C3)(C1)n1c(nc3ccc(N4CCN(C5COC5)CC4)cc31)NC2=O (single isomer, unassigned) [Example B58A]
[reply] < 5.30
